Where do these numbers come from? They come from patent US20150147274A1.

# Measured On: T1, MET928 (cMET protein derived from construct 25-928) (human, UniProt P08581 25-928)
# T1 construct: MET ectodomain, residues 1-24 are the leader; produced in Lec 8 cells; background text says the ectodomain is furin-cleaved into alpha (25-307) and beta chains; biotinylated form used in selections; also called MET928 extracellular domain; Met extracellular domain
# Test Summary: ELISA, soluble scFv
Measured Quantity: binding result

Binder: 109_G10 (scFv, not shown: 6xHis/tri-FLAG tags) scFv: QMQLVQSGAEVKKPGAPVKVSCKVSGYTFTDYYMHWVQQAPGKGLEWMGLVDPEDGETIYAEKFQGRVTITADTSTDTAYMELSSLRSEDTAVYYCATDATTPYWFPRVWGQGTLVTVSSLEGGGGSGGGGSGGGASDIQMTQSPSSLSASVGDRVTITCQASQDISNYLNWYQQKPGRAPKVLIYDASNLETGVPSRFSGSGSGTEFTLTISNLRPDDFATYYCQQGDSFPLTFGGGTKVEIK
Assay Result: binds

Binder: 112_H5 (scFv, not shown: 6xHis/tri-FLAG tags) scFv: QMQLVQSGAEVKKPGAPVKVSCKVSGYTFTDYYMHWVQQAPGKGLEWMGLVDPEDGETIYAEKFQGRVTITADTSTDTAYMELSSLRSEDTAVYYCATDATTPYWGMQAWGQGTLVTVSSLEGGGGSGGGGSGGGASDIQMTQSPSSLSASVGDRVTITCQASQDISNYLNWYQQKPGRAPKVLIYDASNLETGVPSRFSGSGSGTEFTLTISNLRPDDFATYYCQQGDSFPLTFGGGTKVEIK
Assay Result: binds
